- TEST PROTOCOL: gradient 5% acetonitrile 3 min, to 50% in 2 min, to 85% in 15 min, held 3 min, 100 µL/min
- SETTINGS: column: Zorbax Extend-C18 2.1 x 50 mm; eluents: water / acetonitrile, 0.1% formic acid
METRIC NAME: RP-LC retention time (s)

MOLECULE: Cc1noc(C)c1CC(=O)NCc1nnc2n1CCCC2
METRIC NAME: RP-LC retention time
VALUE REPORTED: 559
--
MOLECULE: CC(NC(=O)CCCc1ccccc1)C(=O)N1CCN(c2ccccn2)CC1 (stereo not given)
METRIC NAME: RP-LC retention time
VALUE REPORTED: 626
--
MOLECULE: Cc1cc(C)c2c(-n3cccc3)nn(CC(=O)NC(C)CCc3ccccc3)c2n1 (stereo not given)
METRIC NAME: RP-LC retention time
VALUE REPORTED: 1080
--
MOLECULE: O=C1c2cc(NC(=O)C3(c4cccs4)CCCC3)ccc2OCCC2CCCCN12 (stereo not given)
METRIC NAME: RP-LC retention time
VALUE REPORTED: 974
--
MOLECULE: CNC(=O)Nc1ccc(C2(C(=O)Nc3ccc4c(c3)CCC4)CCC2)cc1
METRIC NAME: RP-LC retention time
VALUE REPORTED: 844

1 = O=C(Nc1cccc(F)c1)C1CCN(S(=O)(=O)c2cc(-c3noc(C4CC4)n3)cs2)CC1
2 = Nc1ccc2c(c1)CN1C(=O)c3ccccc3C1=N2
Between 1 and 2 , which one shows the larger RP-LC retention time value? # answer = label of selected item
1

---

- TEST PROTOCOL: gradient 5% acetonitrile 3 min, to 50% in 2 min, to 85% in 15 min, held 3 min, 100 µL/min
- SETTINGS: column: Zorbax Extend-C18 2.1 x 50 mm; eluents: water / acetonitrile, 0.1% formic acid
METRIC NAME: RP-LC retention time (s)

COMPOUND: Cc1nn(-c2ccc(-c3ccccc3)nn2)c(C)c1S(=O)(=O)NCCC(C)C
RP-LC retention time, s: 1130
//
COMPOUND: CCCN(C)c1nccnc1OC1CCN(C(=O)C2CCCCC2)C1 (centres undefined)
RP-LC retention time, s: 938
//
COMPOUND: CCc1noc(NC(C)=O)c1-c1ccc(OC)c(S(=O)(=O)N2CCOCC2)c1
RP-LC retention time, s: 676
//
COMPOUND: COc1ccccc1OCC1c2ccsc2CCN1C(=O)CN(CC1CC1)C(=O)C(C)C (centres undefined)
RP-LC retention time, s: 947
//
COMPOUND: CCSc1nnc(-c2nn(C)c3c2CN(S(=O)(=O)c2cccc(Cl)c2)CC3)n1CC
RP-LC retention time, s: 989
//
COMPOUND: Cn1ncc2c3ccccc3n(CC(=O)NCCCN3CCN(Cc4ccccc4)CC3)c2c1=O
RP-LC retention time, s: 597
//
COMPOUND: O=c1ccc(-c2ccc3c(c2)OCO3)nn1CCc1nc(-c2cccnc2)no1
RP-LC retention time, s: 720
//
COMPOUND: CN(CCc1noc(COc2ccccc2F)n1)C(=O)c1c(F)cccc1F
RP-LC retention time, s: 885
//
COMPOUND: COc1ccc(NC(=O)c2c(C)oc3nc(C)nc(N4CCOCC4)c23)c(OC)c1
RP-LC retention time, s: 818

---

- TEST PROTOCOL: gradient 5% acetonitrile 3 min, to 50% in 2 min, to 85% in 15 min, held 3 min, 100 µL/min
- SETTINGS: column: Zorbax Extend-C18 2.1 x 50 mm; eluents: water / acetonitrile, 0.1% formic acid
METRIC NAME: RP-LC retention time (s)

COMPOUND: Cn1c(=O)c(N2CCC(NC(=O)Nc3ccccc3C(F)(F)F)CC2)nc2ccccc21
RP-LC retention time [s]: 953
//
COMPOUND: CC1=C(c2ccc(F)cc2)S(=O)(=O)N=C1N1CCCN(C(=O)CC(C)(C)C)CC1
RP-LC retention time [s]: 856
//
COMPOUND: Cc1nc(C)c(C(=O)N2C[C@H]3C[C@H](C2)[C@H]2CCCC(=O)N2C3)s1
RP-LC retention time [s]: 755
//
COMPOUND: COc1ccc(S(=O)(=O)N2CCC(c3noc(-c4cccc(F)c4)n3)CC2)cc1
RP-LC retention time [s]: 1100
//
COMPOUND: O=C1COc2ccc(C(=O)N3CCCCC3)cc2N1
RP-LC retention time [s]: 633

1 = Cc1cccc(CNC(=O)C2CCN(S(=O)(=O)c3cc(C(=O)N4CCOCC4)cs3)CC2)c1
2 = COc1cccc2cc(C(=O)Nc3nc(-c4ccc(Cl)cc4)cs3)c(=O)oc12
Which is greater in RP-LC retention time, the first item 1 or the second item 2 ? Write down the label attached to your selection.
2

P = CCCN1C(=O)COc2ccc(-c3noc(Cc4c[nH]c5ccccc45)n3)cc21
Q = CCn1cc(C)c(C(=O)O)c1CC(=O)NCCN1CCOCC1
Identify the entry with the larger RP-LC retention time. Options: P and Q Your answer should be the label of the entry you select.
P

---

- TEST PROTOCOL: gradient 5% acetonitrile 3 min, to 50% in 2 min, to 85% in 15 min, held 3 min, 100 µL/min
- SETTINGS: column: Zorbax Extend-C18 2.1 x 50 mm; eluents: water / acetonitrile, 0.1% formic acid
METRIC NAME: RP-LC retention time (s)

The examples below pair each entry with its known result.
COMPOUND: O=c1ccn(-c2cccc(F)c2)nc1-c1nc(-c2ccccc2)no1
RP-LC retention time, s: 851
--
COMPOUND: CSc1ccccc1C(=O)NCC1CCN(C(=O)c2ccccc2F)CC1
RP-LC retention time, s: 704
--
COMPOUND: O=C(CSc1nnc2c3sc(N4CCCC4)nc3ncn12)Nc1ccccc1
RP-LC retention time, s: 772
--
COMPOUND: Cc1ccc(NS(=O)(=O)c2cc(-c3[nH]ncc3C(=O)N(C)C)oc2C)c(F)c1
RP-LC retention time, s: 678
--
COMPOUND: COc1ccc2[nH]c3c(c2c1)CCNC31CCN(Cc2ccc(F)cc2F)CC1
RP-LC retention time, s: 580

1 = CCCNC(=O)Cn1c(C2CCCO2)nc2ccccc21 (stereo not given)
2 = Cc1ccc(Nc2nc(-c3ccccc3)c(CC(=O)O)s2)cc1
Would you kindly point out which of 1 and 2 has the smaller RP-LC retention time figure? Please identify the chosen entry by its label.
1
(1: 593 s, 2: 900 s)

---

- TEST PROTOCOL: gradient 5% acetonitrile 3 min, to 50% in 2 min, to 85% in 15 min, held 3 min, 100 µL/min
- SETTINGS: column: Zorbax Extend-C18 2.1 x 50 mm; eluents: water / acetonitrile, 0.1% formic acid
METRIC NAME: RP-LC retention time (s)

Solved cases below.
COMPOUND: O=C(NCc1ccccc1)C1CCc2sc(C(=O)N3CCCC3)cc2C1 (stereo not given)
UNIT LABEL: s
VALUE REPORTED: 702
--
COMPOUND: CN1CCN(CCSC2Cc3cc(Cl)ccc3Sc3ccccc32)CC1 (stereo not given)
UNIT LABEL: s
VALUE REPORTED: 761
--
COMPOUND: CC(=O)c1ccc(NC(=O)Cn2cc(-c3ccccc3)c3ncn(C4CC4)c(=O)c32)cc1
UNIT LABEL: s
VALUE REPORTED: 846
--
COMPOUND: Cc1ccccc1OCC(=O)N1CCCC1c1nc(-c2cccc(Cl)c2)no1 (stereo not given)
UNIT LABEL: s
VALUE REPORTED: 1150
--
COMPOUND: CSc1ccccc1CN1CCC(CNC(=O)C(=O)Nc2ccc3c(c2)OCO3)CC1
UNIT LABEL: s
VALUE REPORTED: 586

1 = CCc1nnc2nc(N3CCN(C(=O)Cc4cc(OC)cc(OC)c4)CC3)cc(C)n12
2 = CCCN(C(=O)Cc1ccc(OC)cc1)c1nc(-c2ccccc2)cs1
Please indicate which item has the smaller measured RP-LC retention time: 1 versus 2 Please identify the chosen entry by its label.
1

---

- TEST PROTOCOL: gradient 5% acetonitrile 3 min, to 50% in 2 min, to 85% in 15 min, held 3 min, 100 µL/min
- SETTINGS: column: Zorbax Extend-C18 2.1 x 50 mm; eluents: water / acetonitrile, 0.1% formic acid
METRIC NAME: RP-LC retention time (s)

COMPOUND: Cc1ccc2nc(N3CCN(C)CC3)c(-c3noc(-c4ccccc4)n3)cc2c1
RP-LC retention time [s]: 715
--
COMPOUND: Cc1noc(C)c1CCC(=O)Nc1ccccc1NC(=O)c1ccsc1
RP-LC retention time [s]: 720
--
COMPOUND: O=C(Nc1ccc2c(c1)OCO2)Nc1ccc2c(c1)N(C(=O)c1ccccc1)CC2
RP-LC retention time [s]: 882
--
COMPOUND: CCC(=O)Nc1ccc(CCc2nc3ccc(C(=O)NC(C)CCc4ccccc4)cc3[nH]2)cc1 (stereo not given)
RP-LC retention time [s]: 714
--
COMPOUND: CCc1noc(NC(C)=O)c1-c1ccc(C)c(S(=O)(=O)Nc2cc(C)cc(C)c2)c1
RP-LC retention time [s]: 885
